# pIC50 values compiled below
Biological target: Dihydrofolate reductase (Rattus norvegicus, UniProt Q920D2)
Test: Inhibitory activity against cell free dihydrofolate reductase (DHFR) from rat
Settings: read-out: I50
pIC50: −log10 of the molar value.
quantityName: pIC50

>>> print(df.to_string())
                       structuresmilesstring  observed
 0                  Nc1ncc(NCc2ccccc2)c(N)n1      4.24
 1  COc1cc(Cc2cnc(N)nc2N)ccc1OCCCCN1C(=O)c2ccccc2C1=O      5.74
 2  COc1cc(Cc2cnc(N)nc2N)ccc1OCCNc1ccc(S(=O)(=O)c2ccc(N)cc2)cc1      5.14
 3        Nc1ncc(OCc2ccc(Br)c3ccccc23)c(N)n1      5.55
 4  Cc1ccc(S(=O)(=O)NCCCCOc2ccc(Cc3cnc(N)nc3N)cc2)cc1      5.76
 5  Cc1ccc(S(=O)(=O)NCCCOc2ccc(COc3cnc(N)nc3N)cc2)cc1      5.35
 6  Nc1ncc(OCc2ccc(OCCCCN3C(=O)c4ccccc4C3=O)cc2)c(N)n1      5.22
 7                Nc1ncc(NCc2ccccc2Cl)c(N)n1      4.15
 8    COc1cc(COc2cnc(N)nc2N)ccc1OCCCc1ccccc1      4.23
 9                  Nc1ncc(OCc2ccccc2)c(N)n1      5.00
10            Nc1ncc(NCc2cccc3ccccc23)c(N)n1      5.23

----------
Molecular target: Dihydropteroate synthetase, putative (Plasmodium berghei str. ANKA, UniProt A0A113T0T6)
Sequence (A0A113T0T6 whole entry): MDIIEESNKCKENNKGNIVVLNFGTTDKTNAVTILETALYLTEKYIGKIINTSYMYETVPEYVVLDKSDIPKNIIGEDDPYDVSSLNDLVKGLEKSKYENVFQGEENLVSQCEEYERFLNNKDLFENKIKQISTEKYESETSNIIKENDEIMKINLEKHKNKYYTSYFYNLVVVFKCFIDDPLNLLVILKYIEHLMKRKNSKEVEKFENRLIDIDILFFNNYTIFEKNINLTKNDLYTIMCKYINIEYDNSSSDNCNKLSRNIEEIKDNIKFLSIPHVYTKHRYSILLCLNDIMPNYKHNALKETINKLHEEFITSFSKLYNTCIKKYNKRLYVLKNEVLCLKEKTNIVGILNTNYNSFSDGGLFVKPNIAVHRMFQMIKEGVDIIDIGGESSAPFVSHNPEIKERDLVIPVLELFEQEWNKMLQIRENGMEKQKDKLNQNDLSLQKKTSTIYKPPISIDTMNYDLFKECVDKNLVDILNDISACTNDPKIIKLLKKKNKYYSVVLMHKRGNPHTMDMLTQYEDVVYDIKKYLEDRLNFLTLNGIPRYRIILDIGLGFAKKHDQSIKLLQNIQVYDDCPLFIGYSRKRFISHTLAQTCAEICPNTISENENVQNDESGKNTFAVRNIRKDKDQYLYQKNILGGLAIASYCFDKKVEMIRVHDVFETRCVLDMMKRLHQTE
Test: Inhibitory activity against dihydropteroic acid synthase (SYN) from Plasmodium berghei
Details: read-out: I50
quantityName: IC50 (µM)

In [3]: df
Out[3]:
                                   compound  unitdescriptor  observed
0  Nc1ccc(S(=O)(=O)c2ccc(NCC(=O)O)cc2)cc1 [ACEDIASULFONE]              µM      17.8
1       CN(C)c1ccc(S(=O)(=O)c2ccc(N)cc2)cc1              µM      21.5
2          CNc1ccc(S(=O)(=O)c2ccc(N)cc2)cc1              µM      26.7
3  Nc1ccc(S(=O)(=O)c2ccc(N)cc2)cc1 [DAPSONE]              µM      12.4
4              Nc1ccc(S(=O)(=O)c2ccccc2)cc1              µM       104
5     COC(=O)c1ccc(S(=O)(=O)c2ccc(N)cc2)cc1              µM       147
6  CC(=O)Nc1ccc(S(=O)(=O)c2ccc(N)cc2)cc1 [MONO-N-ACETYL DAPSONE]              µM      33.3
7           Cc1ccc(S(=O)(=O)c2ccc(N)cc2)cc1              µM        48

----------
Molecular target: UniProtKB Q920D2
Sequence (Q920D2 whole entry): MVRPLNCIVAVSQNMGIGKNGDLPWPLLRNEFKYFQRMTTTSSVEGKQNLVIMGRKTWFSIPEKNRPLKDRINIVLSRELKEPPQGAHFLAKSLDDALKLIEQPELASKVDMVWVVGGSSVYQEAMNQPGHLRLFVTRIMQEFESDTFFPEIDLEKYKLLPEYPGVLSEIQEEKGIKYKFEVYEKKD
Experiment: Inhibitory activity against cell free dihydrofolate reductase (DHFR) from rat
Settings: read-out: I50
# log10(IC50) values compiled below
quantityName: log10(IC50) (log10 of the value in µM)

                       structuresmilesstring  observed
 0            Nc1ncc(OCc2c(Cl)cccc2Cl)c(N)n1      0.41
 1  Nc1ncc(OCc2ccc(OCCCN3C(=O)c4ccccc4C3=O)cc2)c(N)n1      1.20
 2                  Cc1nc(N)nc(N)c1Cc1ccccc1      0.53
 3                Nc1ncc(OCc2ccccc2Cl)c(N)n1      0.55
 4                Cc1nc(N)nc(N)c1CCCc1ccccc1     -0.09
 5                COc1ccc(COc2cnc(N)nc2N)cc1      2.00
 6      Nc1ncc(OCc2ccc(OCc3ccccc3)cc2)c(N)n1      1.60
 7            Nc1ncc(OCc2cccc3ccccc23)c(N)n1      0.42
 8             Nc1ncc(Cc2cccc3ccccc23)c(N)n1      1.47
 9                 Cc1nc(N)nc(N)c1CCc1ccccc1      1.11
10            Nc1ncc(NCc2ccc3ccccc3c2)c(N)n1      1.85
11         Cc1nc(N)nc(N)c1OCc1ccc(Cl)c(Cl)c1      0.66
12              Nc1ncc(NCc2cccc(Cl)c2)c(N)n1      1.70

----------
Test system: Candida albicans
Assay: Inhibitory effect on Candida albicans YEM15 CDR1CDR2up Strain
Format: functional
quantityName: MIC

>>> df
                                   compound  quantityname    observed
0  COc1cc(Cc2cnc(N)nc2N)ccc1OCCCCN1C(=O)c2ccccc2C1=O           MIC  > 64 µg/mL
1        OC(Cn1cncn1)(Cn1cncn1)c1ccc(F)cc1F           MIC    64 µg/mL
2  COc1cc(Cc2cnc(N)nc2N)ccc1OCCNc1ccc(S(=O)(=O)c2ccc(N)cc2)cc1           MIC  > 64 µg/mL
3  COc1ccc(Cc2cnc(N)nc2N)cc1OCCCCN1C(=O)c2ccccc2C1=O           MIC  > 64 µg/mL
4  COc1cc(OC)cc(N2C3CCC2CC(c2cnc(N)nc2N)C3)c1 (stereo unspecified)           MIC  > 64 µg/mL
5            Nc1ncc(OCc2cccc3ccccc23)c(N)n1           MIC  > 64 µg/mL

----------
Target: Dihydrofolate reductase (Candida albicans, UniProt P22906)
Sequence (P22906 whole entry): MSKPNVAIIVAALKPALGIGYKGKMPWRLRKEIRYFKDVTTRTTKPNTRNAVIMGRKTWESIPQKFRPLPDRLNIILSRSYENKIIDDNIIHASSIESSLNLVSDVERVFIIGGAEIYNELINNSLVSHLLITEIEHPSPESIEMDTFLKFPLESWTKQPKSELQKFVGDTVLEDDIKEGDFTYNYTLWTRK
quantityName: log10 of IC50 (log10 of the value in µM)

                                    compound  observed
 0  COc1cc(OC)cc(N2C3CCC2CC(c2cnc(N)nc2N)C3)c1 (configuration not stated)     -1.59
 1                 Cc1nc(N)nc(N)c1CCc1ccccc1      0.62
 2                  Nc1ncc(OCc2ccccc2)c(N)n1      0.09
 3                  Nc1ncc(CNc2ccccc2)c(N)n1      1.77
 4            Nc1ncc(NCc2cccc3ccccc23)c(N)n1      0.14
 5  Nc1ncc(Cc2ccc(OCCCCN3C(=O)c4ccccc4C3=O)cc2)c(N)n1     -1.33
 6          Nc1ncc(OCc2ccc(Cl)c(Cl)c2)c(N)n1      0.57
 7  COc1cc(Cc2cnc(N)nc2N)ccc1OCCCCN1C(=O)c2ccccc2C1=O     -1.51
 8            Nc1ncc(CSc2ccc3ccccc3c2)c(N)n1      1.49
 9                Cc1nc(N)nc(N)c1CCCc1ccccc1      1.00
10            Nc1ncc(NCc2ccc3ccccc3c2)c(N)n1      1.21
11               Nc1ncc(/C=C/c2ccccc2)c(N)n1      0.76
12                  Nc1ncc(CCc2ccccc2)c(N)n1      0.53
13                   Nc1ncc(Cc2ccccc2)c(N)n1      1.96
14    COc1cc(COc2cnc(N)nc2N)ccc1OCCCc1ccccc1      0.79
15  Nc1ncc(OCc2ccc(OCCCCN3C(=O)c4ccccc4C3=O)cc2)c(N)n1     -1.11
16                COc1ccc(COc2cnc(N)nc2N)cc1      1.42
17  Nc1ncc(OCc2ccc(OCCCN3C(=O)c4ccccc4C3=O)cc2)c(N)n1     -0.21
18  COc1cc(COc2cnc(N)nc2N)ccc1OCCCNS(=O)(=O)c1ccc(C)cc1     -0.27
19              COc1ccc(CCc2cnc(N)nc2N)cc1OC      1.55
20          CC(C)(C)c1ccc(COc2cnc(N)nc2N)cc1      1.38
21         Cc1nc(N)nc(N)c1OCc1ccc(Cl)c(Cl)c1      0.13
